test system: Klebsiella pneumoniae; test: Antibacterial activity against Klebsiella pneumoniae 15-5 assessed as inhibition of bacterial growth measured after 18 to 20 hrs by broth microdilution method; type: functional; conditions: time 18-20 hrs
measure_name: MIC (µg/mL)

Worked examples follow.
- cpd_smiles: "Cc1nc(-c2ccc(C(C)(C)C)cc2)ncc1C(=O)N[C@@H](CCN)C(=O)N(C)[C@@H]1C(=O)N[C@@H](C)C(=O)N[C@H](C(=O)NCC#N)Cc2ccc(OCCN)c(c2)-c2cc1ccc2OCCN.Cl.Cl.Cl.Cl"
  study_target: "Klebsiella pneumoniae"
  MIC / µg/mL: 0.06
- cpd_smiles: "Cc1nc(-c2ccc([C@@H](C)SSC(C)(C)C)cc2)ncc1C(=O)N[C@@H](CCN)C(=O)N(C)[C@@H]1C(=O)N[C@@H](C)C(=O)N[C@H](C(=O)NCC#N)Cc2ccc(OCCN)c(c2)-c2cc1ccc2OCCN.O=C(O)C(F)(F)F.O=C(O)C(F)(F)F.O=C(O)C(F)(F)F.O=C(O)C(F)(F)F"
  study_target: "Klebsiella pneumoniae"
  MIC / µg/mL: 0.125
- cpd_smiles: "Cc1nc(-c2ccc(C(C)(C)C)cc2)ncc1C(=O)N[C@@H](CCN)C(=O)N(C)[C@@H]1C(=O)N[C@@H](C)C(=O)N[C@H](C(=O)NOCC#N)Cc2ccc(OCCN)c(c2)-c2cc1ccc2OCCN.Cl.Cl.Cl.Cl"
  study_target: "Klebsiella pneumoniae"
  MIC / µg/mL: 1
- cpd_smiles: "Cc1nc(-c2ccc(SC(C)(C)C)cc2)ncc1C(=O)N[C@@H](CCN)C(=O)N(C)[C@@H]1C(=O)N[C@@H](C)C(=O)N[C@H](C(=O)NCC#N)Cc2ccc(OCCN)c(c2)-c2cc1ccc2OCCN.O=C(O)C(F)(F)F.O=C(O)C(F)(F)F.O=C(O)C(F)(F)F.O=C(O)C(F)(F)F"
  study_target: "Klebsiella pneumoniae"
  MIC / µg/mL: 0.06
- cpd_smiles: "CCCCSSc1ccc(-c2ncc(C(=O)N[C@@H](CCN)C(=O)N(C)[C@@H]3C(=O)N[C@@H](C)C(=O)N[C@H](C(=O)NCC#N)Cc4ccc(OCCN)c(c4)-c4cc3ccc4OCCN)c(C)n2)cc1.O=C(O)C(F)(F)F.O=C(O)C(F)(F)F.O=C(O)C(F)(F)F.O=C(O)C(F)(F)F"
  study_target: "Klebsiella pneumoniae"
  MIC / µg/mL: 0.125
- cpd_smiles: "Cc1nc(-c2ccc(C(C)(C)C)cc2)ncc1C(=O)N[C@@H](CCN)C(=O)N(C)[C@@H]1C(=O)NCCC(=O)N[C@H](C(=O)NCC#N)Cc2ccc(OCCN)c(c2)-c2cc1ccc2OCCN.Cl.Cl.Cl.Cl"
  study_target: "Klebsiella pneumoniae"
  MIC / µg/mL: 64
- cpd_smiles: "Cc1nc(-c2ccc(CSSCC[Si](C)(C)C)cc2)ncc1C(=O)N[C@@H](CCN)C(=O)N(C)[C@@H]1C(=O)N[C@@H](C)C(=O)N[C@H](C(=O)NCC#N)Cc2ccc(OCCN)c(c2)-c2cc1ccc2OCCN.O=C(O)C(F)(F)F.O=C(O)C(F)(F)F.O=C(O)C(F)(F)F.O=C(O)C(F)(F)F"
  study_target: "Klebsiella pneumoniae"
  MIC / µg/mL: 1

P = Cc1nc(-c2ccc(CSSC(C)(C)C)c(F)c2)ncc1C(=O)N[C@@H](CCN)C(=O)N(C)[C@@H]1C(=O)N[C@@H](C)C(=O)N[C@H](C(=O)NCC#N)Cc2ccc(OCCN)c(c2)-c2cc1ccc2OCCN.O=C(O)C(F)(F)F.O=C(O)C(F)(F)F.O=C(O)C(F)(F)F.O=C(O)C(F)(F)F
Q = Cc1nc(-c2ccc(CSSC(C)(C)C)cc2)ccc1C(=O)N[C@@H](CCN)C(=O)N(C)[C@@H]1C(=O)N[C@@H](C)C(=O)N[C@H](C(=O)NCC#N)Cc2ccc(OCCN)c(c2)-c2cc1ccc2OCCN.O=C(O)C(F)(F)F.O=C(O)C(F)(F)F.O=C(O)C(F)(F)F.O=C(O)C(F)(F)F
## Task In terms of reported MIC, does P or Q have the smaller number? # answer = label of selected item
## Result Q

---

test system: Klebsiella pneumoniae; test: Antibacterial activity against Klebsiella pneumoniae 15-5 assessed as inhibition of bacterial growth measured after 18 to 20 hrs by broth microdilution method; format: functional; conditions: time 18-20 hrs
measure_name: MIC (µg/mL)

1 = Cc1nc(-c2ccc(CCCSSC(C)(C)C)cc2)ncc1C(=O)N[C@@H](CCN)C(=O)N(C)[C@@H]1C(=O)N[C@@H](C)C(=O)N[C@H](C(=O)NCC#N)Cc2ccc(OCCN)c(c2)-c2cc1ccc2OCCN.O=C(O)C(F)(F)F.O=C(O)C(F)(F)F.O=C(O)C(F)(F)F.O=C(O)C(F)(F)F
2 = Cc1nc(-c2ccc(CSSC3CCCCC3)cc2)ncc1C(=O)N[C@@H](CCN)C(=O)N(C)[C@@H]1C(=O)N[C@@H](C)C(=O)N[C@H](C(=O)NCC#N)Cc2ccc(OCCN)c(c2)-c2cc1ccc2OCCN.O=C(O)C(F)(F)F.O=C(O)C(F)(F)F.O=C(O)C(F)(F)F.O=C(O)C(F)(F)F
## Task In terms of reported MIC, does 1 or 2 have the smaller number? # answer = label of selected item
## Result 2

---

test system: Klebsiella pneumoniae; test: Antibacterial activity against Klebsiella pneumoniae 15-1 assessed as inhibition of bacterial growth measured after 18 to 20 hrs by broth microdilution method; assay type: functional; conditions: time 18-20 hrs
measure_name: MIC (µg/mL)

- cpd_smiles: "Cc1nc(-c2ccc(C(C)(C)C)cc2)ncc1C(=O)N[C@@H](CCN)C(=O)N(C)[C@@H]1C(=O)N[C@@H](C)C(=O)N[C@H](C(=O)NNCC#N)Cc2ccc(OCCN)c(c2)-c2cc1ccc2OCCN.Cl.Cl.Cl.Cl"
  reading_unit: "µg/mL"
  MIC: 2
- cpd_smiles: "Cc1nc(-c2ccc(CSSC(C)(C)C)cc2)nc(C)c1C(=O)N[C@@H](CCN)C(=O)N(C)[C@@H]1C(=O)N[C@@H](C)C(=O)N[C@H](C(=O)NCC#N)Cc2ccc(OCCN)c(c2)-c2cc1ccc2OCCN.O=C(O)C(F)(F)F.O=C(O)C(F)(F)F.O=C(O)C(F)(F)F.O=C(O)C(F)(F)F"
  reading_unit: "µg/mL"
  MIC: 0.125
- cpd_smiles: "Cc1nc(-c2ccc(C(C)(C)C)cc2)ncc1C(=O)N[C@@H](CCN)C(=O)N(C)[C@@H]1C(=O)N[C@@H](C)C(=O)N[C@H](C(=O)O)Cc2ccc(OCCN)c(c2)-c2cc1ccc2OCCN.O=C(O)C(F)(F)F.O=C(O)C(F)(F)F.O=C(O)C(F)(F)F.O=C(O)C(F)(F)F"
  reading_unit: "µg/mL"
  MIC: 0.06
- cpd_smiles: "CCCCSSc1ccc(-c2ncc(C(=O)N[C@@H](CCN)C(=O)N(C)[C@@H]3C(=O)N[C@@H](C)C(=O)N[C@H](C(=O)NCC#N)Cc4ccc(OCCN)c(c4)-c4cc3ccc4OCCN)c(C)n2)cc1.O=C(O)C(F)(F)F.O=C(O)C(F)(F)F.O=C(O)C(F)(F)F.O=C(O)C(F)(F)F"
  reading_unit: "µg/mL"
  MIC: 0.25
- cpd_smiles: "Cc1nc(-c2ccc(SC(C)(C)C)cc2)ncc1C(=O)N[C@@H](CCN)C(=O)N(C)[C@@H]1C(=O)N[C@@H](C)C(=O)N[C@H](C(=O)NCC#N)Cc2ccc(OCCN)c(c2)-c2cc1ccc2OCCN.O=C(O)C(F)(F)F.O=C(O)C(F)(F)F.O=C(O)C(F)(F)F.O=C(O)C(F)(F)F"
  reading_unit: "µg/mL"
  MIC: 0.06

P = Cc1nc(-c2ccc(C(C)(C)C)cc2)ncc1C(=O)N[C@@H](CCN)C(=O)N(C)[C@@H]1C(=O)N[C@@H](C)C(=O)N[C@H](NC(=O)NC#N)Cc2ccc(OCCN)c(c2)-c2cc1ccc2OCCN.O=C(O)C(F)(F)F.O=C(O)C(F)(F)F.O=C(O)C(F)(F)F.O=C(O)C(F)(F)F
Q = Cc1nc(-c2ccc(CCCSSC(C)(C)C)cc2)ncc1C(=O)N[C@@H](CCN)C(=O)N(C)[C@@H]1C(=O)N[C@@H](C)C(=O)N[C@H](C(=O)NCC#N)Cc2ccc(OCCN)c(c2)-c2cc1ccc2OCCN.O=C(O)C(F)(F)F.O=C(O)C(F)(F)F.O=C(O)C(F)(F)F.O=C(O)C(F)(F)F
R = Cc1nc(-c2ccc(C(C)(C)C)cc2)ncc1C(=O)N[C@@H](CCN)C(=O)N(C)[C@@H]1C(=O)N[C@@H](C)C(=O)N[C@H](C(=O)NCC(=O)O)Cc2ccc(OCCN)c(c2)-c2cc1ccc2OCCN.Cl.Cl.Cl.Cl
## Task Sort these molecules on MIC so the largest reading comes first. // rank by listing labels in the order requested
## Result P, R, Q
(P: 64 µg/mL, R: 1 µg/mL, Q: 0.5 µg/mL)

P = C=CC(=O)N[C@@H]1Cc2ccc(OCCN)c(c2)-c2cc(ccc2OCCN)[C@H](N(C)C(=O)[C@H](CCN)NC(=O)c2cnc(-c3ccc(C(C)(C)C)cc3)nc2C)C(=O)N[C@@H](C)C(=O)N1.O=C(O)C(F)(F)F.O=C(O)C(F)(F)F.O=C(O)C(F)(F)F.O=C(O)C(F)(F)F
Q = Cc1nc(-c2ccc(C(C)(C)C)cc2)ncc1NC(=O)N[C@@H](CCN)C(=O)N(C)[C@@H]1C(=O)N[C@@H](C)C(=O)N[C@H](C(=O)NCC#N)Cc2ccc(OCCN)c(c2)-c2cc1ccc2OCCN.O=C(O)C(F)(F)F.O=C(O)C(F)(F)F.O=C(O)C(F)(F)F.O=C(O)C(F)(F)F
## Task In terms of reported MIC, does P or Q have the smaller number? # answer = label of selected item
## Result Q
(Q: 16 µg/mL, P: 32 µg/mL)
